# targetUnderTest: human MCH-1R (human, UniProt Q99705 1-353)
# Sequence (Q99705 whole entry): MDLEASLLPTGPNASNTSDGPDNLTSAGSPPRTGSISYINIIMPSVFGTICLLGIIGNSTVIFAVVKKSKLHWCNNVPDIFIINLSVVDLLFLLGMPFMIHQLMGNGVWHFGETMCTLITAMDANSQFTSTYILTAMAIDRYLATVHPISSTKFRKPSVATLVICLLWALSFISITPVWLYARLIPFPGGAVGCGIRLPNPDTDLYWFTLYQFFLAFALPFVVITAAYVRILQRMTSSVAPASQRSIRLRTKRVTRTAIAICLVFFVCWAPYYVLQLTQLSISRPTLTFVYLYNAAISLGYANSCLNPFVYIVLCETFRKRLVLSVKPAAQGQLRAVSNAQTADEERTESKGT
# assayProcedure: cell-based or functional assay
measuredMetric: EC50, aequorin bioluminescence (nM)
Only the number, expressed in nM, is required.

Below: 3 binders and their reported EC50, aequorin bioluminescence.
[
  {
    "binder": "XCMLGRVYRPC (N-terminal acetyl; D-Asn at position 6; C-terminal amide; disulfide cycle) [SEQ. ID. NO. 10 (Ac-D-Asn^6 analog of Ac-hMCH(6-16)-NH2)]",
    "EC50, aequorin bioluminescence, nM": 260
  },
  {
    "binder": "XCMLGRVYRPC (HELM PEPTIDE1{[ac].[dA].C.M.L.G.R.V.Y.R.P.C.[am]}$PEPTIDE1,PEPTIDE1,3:R3-12:R3$$$V2.0; SMILES CSCC[C@@H]1NC(=O)[C@@H](NC(=O)[C@@H](C)NC(C)=O)CSSC[C@@H](C(N)=O)NC(=O)[C@@H]2CCCN2C(=O)[C@H](CCCNC(=N)N)NC(=O)[C@H](Cc2ccc(O)cc2)NC(=O)[C@H](C(C)C)NC(=O)[C@H](CCCNC(=N)N)NC(=O)CNC(=O)[C@H](CC(C)C)NC1=O) [SEQ. ID. NO. 6 (Ac-D-Ala^6 analog of Ac-hMCH(6-16)-NH2)]",
    "EC50, aequorin bioluminescence, nM": 160
  },
  {
    "binder": "XMLGRVYRPC (Ac-Arg^6 segment eliminated; Mpr, des-amino-cysteine (3-mercaptopropionic acid) at position 7 instead of Cys; C-terminal amide; disulfide ring) [SEQ. ID. NO. 15 (Δ(X^6-Cys^7), Mpr^7 analog of Ac-hMCH(6-16)-NH2)]",
    "EC50, aequorin bioluminescence, nM": 610
  }
]

Next, consider the following binder.
Please look at this binder and report its EC50, aequorin bioluminescence: XCMLGRVYRPC (HELM PEPTIDE1{[ac].[dK].C.M.L.G.R.V.Y.R.P.C.[am]}$PEPTIDE1,PEPTIDE1,3:R3-12:R3$$$V2.0; SMILES CSCC[C@@H]1NC(=O)[C@@H](NC(=O)[C@@H](CCCCN)NC(C)=O)CSSC[C@@H](C(N)=O)NC(=O)[C@@H]2CCCN2C(=O)[C@H](CCCNC(=N)N)NC(=O)[C@H](Cc2ccc(O)cc2)NC(=O)[C@H](C(C)C)NC(=O)[C@H](CCCNC(=N)N)NC(=O)CNC(=O)[C@H](CC(C)C)NC1=O) [SEQ. ID. NO. 13 (Ac-D-Lys^6 analog of Ac-hMCH(6-16)-NH2)]
94
